biological target: UniProt:Q9HBX9; assay: RXFP1 Hu cAMP (Test A); assay type: cell-based; set-up: expressed in transfected cells; host or cells: Jump-In T-REx CHO-K1 cells (ThermoFisher), induced with 10 ng/ml doxycycline for 24 h; conditions: RXFP1 Hu cAMP; read-out: Test A EC50
Sequence (Q9HBX9 whole entry): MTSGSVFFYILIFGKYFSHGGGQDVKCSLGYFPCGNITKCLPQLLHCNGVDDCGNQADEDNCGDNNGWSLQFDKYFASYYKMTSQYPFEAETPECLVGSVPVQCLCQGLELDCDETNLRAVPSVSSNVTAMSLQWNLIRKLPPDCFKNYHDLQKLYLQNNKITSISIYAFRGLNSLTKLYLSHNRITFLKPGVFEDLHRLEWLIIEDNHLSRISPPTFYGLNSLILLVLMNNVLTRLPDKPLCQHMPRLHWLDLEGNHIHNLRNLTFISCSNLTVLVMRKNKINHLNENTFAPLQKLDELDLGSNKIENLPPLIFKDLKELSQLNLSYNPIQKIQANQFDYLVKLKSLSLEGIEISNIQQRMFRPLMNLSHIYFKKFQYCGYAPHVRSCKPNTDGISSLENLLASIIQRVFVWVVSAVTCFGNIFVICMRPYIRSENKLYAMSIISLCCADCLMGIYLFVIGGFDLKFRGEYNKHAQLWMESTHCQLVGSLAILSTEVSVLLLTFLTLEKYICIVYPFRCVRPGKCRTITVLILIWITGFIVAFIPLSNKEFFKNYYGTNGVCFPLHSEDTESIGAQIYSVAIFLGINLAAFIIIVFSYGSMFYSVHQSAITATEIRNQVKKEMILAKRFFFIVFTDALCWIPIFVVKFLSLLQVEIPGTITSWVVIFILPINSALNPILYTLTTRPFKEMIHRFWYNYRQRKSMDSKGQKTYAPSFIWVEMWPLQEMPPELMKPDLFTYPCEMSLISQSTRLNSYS
measured_endpoint: pEC50
Scale note: pEC50 = -log10(concentration in M).

As a guide, the following entries are already answered.
COc1cc(F)c(O[C@H]2CC[C@@H](C(=O)O)CC2)cc1C(=O)N[C@@H]1[C@H]2CC[C@H](C2)[C@@H]1C(=O)N[C@@H](C)C(C)(C)C
4.68
COc1cc(C#N)c(O[C@H]2CC[C@@](C)(C(=O)O)CC2)cc1C(=O)N[C@@H]1[C@H]2CC[C@H](C2)[C@@H]1C(=O)NCC(C)(C)OC
6.62
COc1cc(F)c(O[C@H]2CC[C@@](C)(C(=O)O)CC2)cc1C(=O)Nc1cccc(Cl)c1C(=O)NCC1(C)CCC1
6.31
COC[C@]1(C(=O)O)CC[C@@H](Oc2cc(C(=O)N[C@@H]3[C@H]4CC[C@H](C4)[C@@H]3C(=O)Nc3cccc(S(=O)(=O)C(F)(F)F)c3)c(OC)cc2F)CC1
7.96
COc1cc(F)c(O[C@H]2CC[C@@](C)(C(=O)O)CC2)cc1C(=O)N[C@@H]1[C@H]2CC[C@H](C2)[C@@H]1C(=O)N[C@@H]1CCN(S(=O)(=O)C(F)(F)F)C1
7.10
COc1cc(F)c(O[C@H]2CC[C@@H](C(=O)O)CC2)cc1C(=O)N[C@@H]1[C@@H]2C[C@@H]([C@H]3OCO[C@@H]23)[C@@H]1C(=O)Nc1cccc(S(=O)(=O)C(F)(F)F)c1
6.72
CCC1(CNC(=O)[C@H]2[C@@H]3CC[C@@H](C3)[C@H]2NC(=O)c2cc(O[C@H]3CC[C@@](C)(C(=O)O)CC3)c(F)cc2OC)CCC1
7.30
COc1cc(F)c(O[C@H]2CC[C@@H](C(=O)O)CC2)cc1C(=O)N[C@@H]1[C@H]2CC[C@H](C2)[C@@H]1C(=O)Nc1cc(C)cc(C(F)(F)F)c1
6.57
COc1cc(F)c(OC2CCC(C)(C(=O)O)CC2)cc1C(=O)NC1C2CCC(CC2)C1C(=O)NCC1(C)CCC1 (single isomer, unassigned) [Example 543]
6.35
COc1cc(F)c(-c2cccc(C[C@@H](C(=O)O)N(C)C)c2)cc1C(=O)N[C@@H]1[C@H]2CC[C@H](C2)[C@@H]1C(=O)Nc1cccc(S(=O)(=O)C(F)(F)F)c1 (racemic)
6.41

Prompt line: Give the value of pEC50 reported for the following: COc1cc(F)c(Cc2cnn(CC(=O)O)c2)cc1C(=O)N[C@@H]1[C@H]2CC[C@H](C2)[C@@H]1C(=O)Nc1cccc(S(=O)(=O)C(F)(F)F)c1
Response line: 5.82

Prompt line: Give the reported value of pEC50 for this record: COc1cc(F)c(O[C@H]2CC[C@@](C)(C(=O)O)CC2)cc1C(=O)N[C@@H]1COCC[C@@H]1C(=O)Nc1cccc(S(=O)(=O)C(F)(F)F)c1 (relative stereo) [Example 559]
Response line: 5.92

Prompt line: Please indicate pEC50 recorded for COc1cc(NC(=O)[C@H]2[C@@H]3CC[C@@H](C3)[C@H]2NC(=O)c2cc(O[C@H]3CC[C@@H](C(=O)O)CC3)c(F)cc2OC)cc(C(F)(F)F)c1
Response line: 6.33

Prompt line: Look up and state reported pEC50 for COc1cc(F)c(O[C@H]2CC[C@@H](C(N)=O)CC2)cc1C(=O)N[C@@H]1[C@@H]2CC[C@@H](C2)[C@@H]1C(=O)Nc1cccc(S(F)(F)(F)(F)F)c1
Response line: 7.43

Prompt line: Identify pEC50 associated with the compound COc1cc(F)c(-c2ccc(C(=O)O)cc2)cc1C(=O)Nc1ccccc1C(=O)Nc1cccc(S(=O)(=O)C(F)(F)F)c1
Response line: 6.72

Prompt line: Identify measured pEC50 corresponding to COc1cc(F)c(O[C@H]2CC[C@@H](C(=O)O)CC2)cc1C(=O)N[C@@H]1[C@@H]2CC[C@@H](C2)[C@@H]1C(=O)Nc1cccc(S(F)(F)(F)(F)F)c1
Response line: 7.89

Prompt line: Give pEC50 for the following compound: COc1cc(C#N)c(O[C@H]2CC[C@@](C)(C(=O)O)CC2)cc1C(=O)N[C@@H]1[C@H]2CC[C@H](C2)[C@@H]1C(=O)NC[C@H]1C[C@@H](C)C1
Response line: 6.80

Prompt line: # return recorded pEC50 for input COc1cc(F)c(-c2cc(C(=O)O)cs2)cc1C(=O)N[C@H]1[C@@H](C(=O)Nc2cccc(S(=O)(=O)C(F)(F)F)c2)[C@@H]2C=C[C@H]1C2 (racemic)
Response line: 6.09

Prompt line: Kindly indicate its recorded pEC50. Item: COc1cc(F)c(O[C@H]2CC[C@@](C)(C(=O)O)CC2)cc1C(=O)N[C@@H]1CCOC[C@@H]1C(=O)Nc1cccc(S(=O)(=O)C(F)(F)F)c1 (racemic)
Response line: 6.70
